- PROTOCOL_TEXT: photoluminescence quantum yield (fraction); solvent given as SMILES
- PROTOCOL_CONDITIONS: in Cc1ccccc1

{"COMPOUND": "Cc1ccc(-c2ccc(/C=C/c3cccn3C)cn2)nc1", "photoluminescence quantum yield": 0.25}
{"COMPOUND": "CCCC1=Cc2nc1ccc1[nH]c(cc1CCC)c1nc(c(OC(C)=O)cc3[nH]c2cc3CCC)C(CCC)=C1", "photoluminescence quantum yield": 0.28}
{"COMPOUND": "Oc1ccccc1-c1nc2c3cccnc3c3ncccc3c2n1-c1ccccc1", "photoluminescence quantum yield": 0.001}
{"COMPOUND": "C=CC1CN2CCC1CC2[C@@H](OCc1ccccc1)c1ccnc2ccc(O)cc12 (stereo partly drawn)", "photoluminescence quantum yield": 0.06}
{"COMPOUND": "CCCCCCCCn1c2cc(/C=C/c3ccc(N(c4ccccc4)c4ccccc4)cc3)ccc2c2cc3c(cc21)c1ccc(/C=C/c2ccc(N(c4ccccc4)c4ccccc4)cc2)cc1n3CCCCCCCC", "photoluminescence quantum yield": 0.62}
{"COMPOUND": "N#CC(C#N)=Cc1ccc2c(c1)c1ccccc1n2-c1cc2ccccc2c2ccccc12", "photoluminescence quantum yield": 0.16}
{"COMPOUND": "C#CCNC1=C2C=CC=[N+]2[B-](F)(F)n2cccc21", "photoluminescence quantum yield": 0.92}
{"COMPOUND": "CC(C)[Si](C#Cc1c2ccc(C(C)(C)C)cc2c(C#C[Si](C(C)C)(C(C)C)C(C)C)c2ccc(C(C)(C)C)cc12)(C(C)C)C(C)C", "photoluminescence quantum yield": 0.92}
